Just for reference, PubChem BioAssay is where these values come from.

assay: viability profiling in RPMI8226 myeloma cells – cell-based, resazurin fluorescence, basal, 24 h, PK04 Diversity Set, profiling panel (AID 1180); details: higher = more signal;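 further: RPMI8826 multiple myeloma cell line at 5000 cells per well; test concentration not given here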
Experimental endpoint: z-score
Give the figure only, with no unit attached.

# lookup: z-score of Cc1cc(C)c(C(O)C2C=CC3C(=O)NC(=O)C3N2Nc2ccccn2)c(C)c1 (centres undefined) -0.68

Repeat with "CC(C)[Si]1(C(C)C)O[C@@H](c2ccccc2)c2cc(-c3ccc(-c4ccc(Cl)c(Cl)c4)o3)nc(CCc3ccccc3)c21" -0.622

Now consider "COCCn1c(C(=O)N(C)C)cc2c1C[C@H]1CN(C(=O)c3ccccc3)[C@@](Cc3ccc(F)cc3)(C(=O)OC)[C@@H]21" and answer again. -0.38

Continue with "COC(=O)[C@@]1(Cc2ccc(F)cc2)[C@H]2c3cc(C(=O)N(C)C)n(Cc4ccccn4)c3C[C@H]2CN1C(=O)c1ccccc1" 0.35

Could you do the same for "COc1ccc(C(=O)Nc2cccc(CN3C(=O)[C@@]4(O[C@@H](CCn5cc([C@H](O)c6ccccc6)nn5)[C@H]([Si](C)(C)c5ccc(OC)cc5)[C@H]4C)c4ccccc43)c2)cc1" , please? -6.13

Try this molecule next: "COCCOC(=O)N1C(=O)[C@@]2(c3cc(C#CCC(C(=O)OC)C(=O)OC)ccc31)[C@H](c1ccc(OCCO)cc1)N1[C@H](c3ccccc3)[C@H](c3ccccc3)OC(=O)[C@H]1[C@@H]2C(=O)NC[C@H](O)c1ccccc1" -0.957

Same for "[N-]=[N+]=NCc1ccccc1C[C@]1(C(N)=O)N=C(c2ccc(OCCCO)cc2)O[C@H]1c1ccccc1N=[N+]=[N-]" -1.24

----------
test: JC-1 mitochondrial potential readout, lung cancer cells – cell-based, A549, JC-1 fluorescence, basal, 24 h, 100 nL, profiling panel (AID 1138); settings: higher = more signal;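 further: A549 lung adenocarcinoma cells under basal conditions with no added stimulus; test concentration not given here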
Experimental endpoint: z-score
// response body must contain only the number

Worked cases, answers included:
- Compound: "C=CC[C@]1(C(=O)O)N=C(c2ccc(OCCCO)cc2)O[C@H]1c1ccccc1CN=[N+]=[N-]"
  Experimental result: 0.00796
- Compound: "CCCNC(=O)[C@@]1(C)c2ccccc2C(=O)N(Cc2cc(F)cc(C(F)(F)F)c2)[C@H]1c1ccc(CO)cc1"
  Experimental result: -0.394
- Compound: "COC(=O)[C@@]1(Cc2ccc(OC)cc2)[C@H]2c3cc(C(=O)N(C)C)n(Cc4ccc(OC)c(OC)c4)c3C[C@H]2CN1C(=O)c1ccccc1"
  Experimental result: 0.327

Quick check: z-score of "COC(=O)c1c2oc(c1C(=O)OC)C(=O)N[C@H](Cc1ccccc1)Cn1nncc1C1(CCCCC1)NC(=O)N[C@H](CO)CC2" ? 3.5

Next entry: CC(c1ccccc1)C(O)C1C=CC2C(=O)N(c3ccccc3)C(=O)C2N1Nc1ccccc1F (centres undefined) -0.673

Next: "C[N+](C)(C)CCCCNC(=O)[C@H]1C[C@H]2C(=O)N3CCC[C@H]3C(=O)N2[C@H]1c1ccc(O)cc1" -0.515

Continue with Cc1ccc(C(C)CC(O)C2C=CC3C(=O)NC(=O)C3N2Nc2ccccn2)o1 (centres undefined) 0.839

Can you check "[N-]=[N+]=Nc1ccccc1[C@H]1OC(c2ccc(OCCCO)cc2)=N[C@@]1(CCS(=O)(=O)c1ccccc1)C(=O)N1CCOCC1" next? -0.218

# repeat for "COC(=O)[C@@]1(Cc2ccc(OC)cc2)[C@H]2c3cc(C(=O)N(C)C)n(CCSCCO)c3C[C@H]2CN1C(=O)c1ccccc1" -0.399

----------
Here the recorded z-score is given for each entry.
experiment: S. pombe growth modifiers, basal conditions – strain 972, OD600, 24 h, no modulator, primary screen (AID 1090);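 further: basal condition with compound alone and no growth modifier present; test concentration not given here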; conditions: S. pombe 972 growth, higher = more signal, called active from +8 up or from −8 down
The source made the active and inactive calls.

Use the examples below as a reference point.
- Compound: "C=CCNC(=O)[C@H]1[C@@H]2C(=O)O[C@@H](c3ccccc3)[C@@H](c3ccccc3)N2[C@@H](c2ccc(OCCO)cc2)[C@]12C(=O)N(C(=O)OCCOC)c1ccc(C#CC3(O)CCCCCC3)cc12"
  z-score: "0.97 (inactive)"
- Compound: "CO[C@H]1O[C@H](CO)[C@@H](OC(=O)Nc2ccc3c(c2)OCO3)[C@H](OC(=O)Nc2ccc3c(c2)OCO3)[C@H]1OC(=O)Nc1ccc2c(c1)OCO2"
  z-score: "0.861 (inactive)"
- Compound: "OCCCc1cc[n+](Cc2cccc(OC(F)(F)F)c2)cc1"
  z-score: "-3.01 (inactive)"
- Compound: "COc1ccc(C(O)C2C=CC3C(=O)N(c4ccccc4)C(=O)C3N2Nc2ccccc2)c2ccccc12 (stereo unspecified)"
  z-score: "1.81 (inactive)"
- Compound: "COCC1C2CC[C@H]3C(OCc4ccc(F)cc4C(F)(F)F)OC[C@]4(C)[C@H]3C2=C(CN4C(=O)OC(C)(C)C)[C@H](C)C1COC (stereo partly specified)"
  z-score: "1.04 (inactive)"

Consider now this further compound.
Sample Cc1ccc(C(C)CC(O)C2C=CC3C(=O)NC(=O)C3N2Nc2ccccn2)o1 (stereo unspecified) — what was its z-score? 0.0293 (inactive)

----------
test: optical density change of DRC41 E. coli – strain DRC41, OD650, 24 h, E. coli filamentation project, primary screen (AID 1093);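 further: MC1000 strain lacking acrAB efflux and sulA so SOS filamentation is blocked; test concentration not given here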; details: E. coli DRC41 growth, higher = more signal, called active from +8 up or from −8 down
Listed next: entries and their corresponding z-score.
Just the number, please, no unit after it.

In the examples that follow, each entry is paired with its recorded z-score.
- Compound: "C=CCNC(=O)[C@H]1[C@@H]2C(=O)O[C@@H](c3ccccc3)[C@@H](c3ccccc3)N2[C@@H](c2ccc(O)cc2)[C@]12C(=O)Nc1ccc(C#Cc3ccc(OC)cc3)cc12"
  Experimental result: -0.451
- Compound: "C=CCC(OC(C)=O)[C@@H]1[C@@H](N(Cc2cc3ccccc3o2)C(=O)c2ccc(C)cc2)c2cc(OCCCO)ccc2N1C(=O)c1ccc(-c2ccccc2)cc1 (some centres undefined)"
  Experimental result: -0.818
- Compound: "CCOC(=O)C[C@H]1[C@H](OC(=O)c2ccccc2-c2ccccc2)[C@@H](NC(=O)c2ccc(-c3ccccc3)cc2)c2cc(OCCCO)ccc2N1C(=O)c1ccccc1"
  Experimental result: 1.04
- Compound: "COc1ccc(C#Cc2ccc3c(c2)[C@]2(C(=O)N3)[C@H](c3ccc(OCCO)cc3)N3[C@H](c4ccccc4)[C@H](c4ccccc4)OC(=O)[C@H]3[C@@H]2C(=O)Nc2nc3ccccc3s2)cc1"
  Experimental result: 2.4
- Compound: "C=C(/C(=C/C[C@@H](OC(=O)c1ccncc1)c1ccc(CO)o1)c1cc(C(=O)OC)ccc1OC)C(C)C"
  Experimental result: 0.481
- Compound: "COc1ccc([Si](C)(C)[C@@H]2[C@@H](CCO)O[C@]3(C(=O)N(Cc4ccccc4)c4ccc(N(C=O)c5ccccc5)cc43)[C@H]2C)cc1"
  Experimental result: 0.329
- Compound: "COc1ccc([Si](C)(C)[C@@H]2[C@@H](CC(=O)N3Cc4ccccc4C[C@H]3CO)O[C@]3(C(=O)N(Cc4cccc(N5C(=O)COc6ccccc65)c4)c4ccccc43)[C@H]2C)cc1"
  Experimental result: 2.33
- Compound: "C=CC[C@@]1(C(N)=O)N=C(c2ccc(OCCCO)cc2)O[C@@H]1c1ccccc1N=[N+]=[N-]"
  Experimental result: 1.4

Okay, now this compound:
Sample "CCOC(=O)C1=C[C@@H](C(C)(C)C)N(S(=O)(=O)c2ccc(C)cc2)[C@H]1c1ccc(Cl)c(Cl)c1" — what was its z-score? -0.875

----------
molecular target: NADPH oxidase 4 (Homo sapiens) (UniProt Q9NPH5); assay: compounds shifting NOX4 Amplex Red fluorescence – cell-based, HEK293-NOX4, tetracycline-induced, NOX inhibitor project, primary screen (AID 1160); conditions: HEK293-NOX4, Amplex Red H2O2 fluorescence, 45 min; higher = more signal, called active from +8 up or from −8 down
Sequence (Q9NPH5 whole entry, looked up): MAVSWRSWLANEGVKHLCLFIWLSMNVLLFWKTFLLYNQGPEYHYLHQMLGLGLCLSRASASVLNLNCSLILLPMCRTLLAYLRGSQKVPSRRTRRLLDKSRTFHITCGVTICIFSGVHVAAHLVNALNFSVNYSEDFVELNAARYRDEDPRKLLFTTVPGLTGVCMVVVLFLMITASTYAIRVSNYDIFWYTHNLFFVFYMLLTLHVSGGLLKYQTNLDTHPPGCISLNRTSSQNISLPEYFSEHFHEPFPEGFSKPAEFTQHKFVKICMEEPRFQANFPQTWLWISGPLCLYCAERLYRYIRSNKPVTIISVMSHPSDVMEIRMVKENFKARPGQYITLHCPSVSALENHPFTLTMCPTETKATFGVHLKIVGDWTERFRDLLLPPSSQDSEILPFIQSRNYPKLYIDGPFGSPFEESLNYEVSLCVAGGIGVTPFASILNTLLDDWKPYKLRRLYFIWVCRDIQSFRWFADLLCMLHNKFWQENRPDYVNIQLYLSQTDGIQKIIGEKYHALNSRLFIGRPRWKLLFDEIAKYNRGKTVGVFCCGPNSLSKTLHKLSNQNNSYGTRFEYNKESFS
Experimental endpoint: z-score
When you answer, write just the number.

For orientation, consider the following solved cases.
- Compound: "O=C1C2C=CC(C(O)c3ccc(B(O)O)cc3)N(Nc3ccc([N+](=O)[O-])cc3)C2C(=O)N1c1ccccc1 (stereo not drawn)"
  z-score: -0.374
- Compound: "CCN(CC)c1ccc(N2CC=CC34O[C@@H]5/C=C\\CCCOC(=O)C5[C@H]3C(=O)N(CCCO)[C@@H]4C2=O)cc1 (stereo partly drawn)"
  z-score: 0.558

Okay, now this compound:
Look up z-score: CN1C(=O)C2C=CC(C(O)C(c3ccccc3)c3ccccc3)N(Nc3ccccc3)C2C1=O (stereo not drawn) -4.91

----------
assay: inhibition of PAO1 biofilm formation – strain PAO1, LB-PBS medium, absorbance 600 nm, primary screen (AID 1176); further: test concentration not given here; details: P. aeruginosa PAO1 growth/biofilm, A600, 12 h; higher = more signal
param class (str): category from z-score; see ranges zone 1: < 0.2; zone 2: ≥ 0.2 and < 1; zone 3: ≥ 1

- Compound: "COc1ccc(C#Cc2ccc3c(c2)[C@]2(C(=O)N3)[C@H](c3ccc(OCCO)cc3)N3[C@H](c4ccccc4)[C@H](c4ccccc4)OC(=O)[C@H]3[C@@H]2C(=O)Nc2nc3ccccc3s2)cc1"
  Classification: "zone 3"
- Compound: "COCCOC(=O)N1C(=O)[C@@]2(c3cc(C#CC4=CCCCC4)ccc31)[C@H](c1ccc(OCCO)cc1)N1[C@H](c3ccccc3)[C@H](c3ccccc3)OC(=O)[C@H]1[C@@H]2C(=O)Nc1nc2ccccc2s1"
  Classification: "zone 3"
- Compound: "O=C(CS)NCCCCCCNC(=O)[C@H]1C[C@H]2C(=O)N3CCC[C@H]3C(=O)N2[C@H]1c1ccc(O)cc1"
  Classification: "zone 1"

Form field 'band' for O=C1C2C=CC(C(O)c3ccc(Br)cc3)N(n3cnnc3)C2C(=O)N1Cc1ccccc1 (stereo not given) zone 1

Also need "NC(=O)[C@]1(Cc2ccccc2)N=C(c2ccc(OCCCO)cc2)O[C@@H]1c1ccccc1" , thanks. zone 2

What about this compound? "O=C1c2ccccc2[C@@]2(Cc3ccccc3N(Cc3ccccc3)C2=O)[C@H](c2ccc(CO)cc2)N1Cc1ccccc1C(F)(F)F" zone 1
